Test system: CCRF-CEM leukemia
Assay: NCI tumour cell line growth inhibition, 48 h

MOLECULE | TGI
CC(=O)Oc1c2ccsc2c(OC(C)=O)c2ccsc12 | > 21.4 µM
COc1ccc(-c2cc(-c3ccc(Cl)cc3)nc(NCCCCNc3ccnc4cc(Cl)ccc34)n2)cc1 | > 100 µM
COc1cc(/C=C(\NC(=O)c2ccccc2)c2nc3ncncc3[nH]2)cc(OC)c1OC | > 100 µM
O=C(COc1ccccc1)N(C(=O)N1CCN(c2ccccc2)CC1)S(=O)(=O)c1ccccc1 | 61.2 µM
c1ccc(-c2c(-c3cccs3)[nH]c(-c3cccs3)c2-c2ccccn2)nc1 | 52.5 µM
NS(=O)(=O)c1ccc(NC(=O)C2C(=O)C(=O)N(c3ccc(S(N)(=O)=O)cc3)C2=O)cc1 (stereo not given) | > 100 µM
CCOC(=O)c1[nH]c2cc(OC)c(OC)cc2c1CN(C)C | > 100 µM
CCOC(=N)CC(=O)Nc1ccccc1 | > 31.6 µM
CCN(CC)CCN1c2nc3ccccc3cc2Sc2cc3ccccc3nc21 | 4.73 µM
COC(=O)c1c(-c2cc(OC)c(OC)c(OC)c2)oc2ccccc2c1=O | > 100 µM

---

Tested on: M14 melanoma
Assay: NCI tumour cell line growth inhibition, 48 h; in the data active = GI50 below about 0.43 µM; inactive = the rest
Classes used: true (1) (active), false (0) (inactive)

COMPOUND | TARGET_OR_SYSTEM | LABEL
CCC(=O)N1C/C(=C/c2ccc(Br)cc2)C(=O)/C(=C/c2ccc(Br)cc2)C1 | M14 melanoma | false (0)
O=C(Nc1cc(Cl)ccc1O)c1cccc(Nc2ccnc(C(F)(F)F)c2)c1 | M14 melanoma | false (0)
OC1CCCC2CCC[N-]C12.OC1CCCC2CCC[N-]C12.[O]=[V][OH] (configuration not stated) | M14 melanoma | false (0)
COc1cc(-c2nc3ccccc3o2)cc(CN2CCCCC2)c1O | M14 melanoma | false (0)
CCN1C(=O)N(CC)C2C1NN=c1s/c(=C3\C(=O)N(C4CCCC4)c4ccccc43)c(=O)n12 (configuration not stated) | M14 melanoma | false (0)
O=C1Nc2ccccc2/C1=C\c1nc(-c2ccccc2F)n2ccccc12 | M14 melanoma | false (0)
COc1ccc(C(=O)c2cc3c(N)c(C(=O)Nc4cccc(Br)c4C)sc3nc2C)cc1 | M14 melanoma | true (1)
Clc1ccc2c(c1)N(C1CCCN(Cc3ccccc3)C1)c1ccccc1S2 (configuration not stated) | M14 melanoma | false (0)
CCN(CC)c1ccc(-c2cc(-c3cc(OC)c(OC)c(OC)c3)nc(N3CCC(O)CC3)c2C#N)cc1 | M14 melanoma | true (1)
Fc1ccc(-c2nn3ccccc3c2-c2ccncc2)cc1 | M14 melanoma | false (0)
CC1=C(C(=O)Nc2ccc(F)c(Cl)c2)C(c2cccc(Oc3ccccc3)c2)NC(=S)N1 (configuration not stated) | M14 melanoma | false (0)
O=C(Nc1cc(Cl)ccc1O)c1ccccc1Nc1ccnc(C(F)(F)F)c1 | M14 melanoma | false (0)
N=C(N)c1ccc(-c2ccc(-c3ccc4ccccc4c3)s2)s1 | M14 melanoma | false (0)
C/C=C/C(=O)[O-].C/C=C/C(=O)[O-].N.N.N.N.[Co+3].[O-][Cl+3]([O-])([O-])[O-] | M14 melanoma | false (0)
NCCCNc1nc2ccccc2c2c(=O)c3cccc(Cl)c3sc12 | M14 melanoma | false (0)
O=C1C=C(OCC=C(C(F)(F)F)C(F)(F)F)c2ccccc2C1=O | M14 melanoma | false (0)
O=C1Cc2cc(CCn3cncn3)c(Cl)cc2N1 | M14 melanoma | false (0)
